# assay.info: Solubility tests of resorcinol products in alcoholic solvents
# Type: physicochemical
# settings: 1-methoxy-2-propanol, organic solvent or mixture, thermodynamic from solid; 20° C., Table 11, by product ratio DBMR/BTMR/DTMR; read-out: Solubility in 1-Methoxy-2-propanol
measured.metric: solubility at 24 h (µg/mL)
Report the figure in µg/mL without appending any unit label.

Q: What measured solubility at 24 h goes with Cc1cccc(C(=O)c2cc(C(=O)c3cccc(C)c3)c(O)c(C)c2O)c1 [DTMR, ditoluoylacyl-2-methyl resorcinol] ?
A: 15000

Q: Next: Cc1c(O)c(C(=O)c2ccccc2)cc(C(=O)c2ccccc2)c1O [DBMR, dibenzoylacyl-2-methyl resorcinol]
A: 4000
